- PROCEDURE SUMMARY: Toxicity liver stage against HepG2, at 10uM
- Type: cell-based
- Parameters: test concentration 10 uM, cell line HepG2-A16-CD81EGFP
- ASSAY CONDITIONS: human, HepG2-A16-CD81EGFP cells; read-out: INHIBITION
Task for the reader: assign each of the following compounds its reported cytotoxicity at 10 µM.
Quick reminder: number only, in %, skip the unit.

### Prompt Requested field: cytotoxicity at 10 µM. Item: O=C(c1ccc(O)c(Cl)c1)N(Cc1ccncc1)C1CC1
### Response -8.99

### Prompt Requested field: cytotoxicity at 10 µM. Item: COc1cc(C(=O)N2CCC(c3n[nH]c(C4CC4)n3)CC2)ccc1C
### Response 3.37

### Prompt Requested field: cytotoxicity at 10 µM. Item: CC(C)c1nccn1C1CCCN(C(=O)c2ccc3nncn3c2)C1 (centres undefined)
### Response -5.53

### Prompt Requested field: cytotoxicity at 10 µM. Item: COc1ccc(CN2Cc3[nH]nc(C(=O)N(C)C)c3C2)cc1
### Response -2.48

### Prompt Requested field: cytotoxicity at 10 µM. Item: O=C(c1ccco1)N1CCOCC2(CCN(C3CCOCC3)C2)C1 (centres undefined)
### Response 3.07

### Prompt Requested field: cytotoxicity at 10 µM. Item: Cc1nc(CCC(N)=O)cc(C2CCNCC2)n1
### Response -15.1

### Prompt Requested field: cytotoxicity at 10 µM. Item: O=C(c1ccccn1)N1CCn2cnc(COCC3CC3)c2C1
### Response 11.4

### Prompt Requested field: cytotoxicity at 10 µM. Item: Cn1cc(CN(C(=O)C2COc3ccccc3C2)C2CC2)cn1 (centres undefined)
### Response 1.81

### Prompt Requested field: cytotoxicity at 10 µM. Item: CCn1cnnc1CNC(=O)N(C)Cc1ccccc1OC
### Response -7.32

### Prompt Requested field: cytotoxicity at 10 µM. Item: COc1ccc(-c2n[nH]c(C)c2CC(=O)N2CCOCC2)cc1
### Response -14.2

### Prompt Requested field: cytotoxicity at 10 µM. Item: CN(C)c1ccc(C(=O)N2CCCC2c2ccc(Cl)cc2)cc1 (centres undefined)
### Response 1.21

### Prompt Requested field: cytotoxicity at 10 µM. Item: O=c1[nH]c(N2CCCCC2)nc2nccc(-c3ccc4c(c3)OCO4)c12
### Response 9.54

### Prompt Requested field: cytotoxicity at 10 µM. Item: Cn1ccnc1CN1CCOC[C@H]1c1nc(C(C)(C)C)co1
### Response -4.13

### Prompt Requested field: cytotoxicity at 10 µM. Item: CCCOCC(=O)NS(=O)(=O)c1ccc2c(c1)OCCO2
### Response -6.46

### Prompt Requested field: cytotoxicity at 10 µM. Item: O=C(NCc1nnc2n1CCCC2)c1ccc(C2CCCO2)s1 (centres undefined)
### Response 15.7

### Prompt Requested field: cytotoxicity at 10 µM. Item: O=C(c1ccc(SC(F)(F)F)cc1)N1CCOCC1c1ncon1 (centres undefined)
### Response -0.449

### Prompt Requested field: cytotoxicity at 10 µM. Item: Cc1cnn(CC2CN(Cc3nc(-c4ccccn4)no3)CCO2)c1 (centres undefined)
### Response -22.6

### Prompt Requested field: cytotoxicity at 10 µM. Item: CS(=O)(=O)CCC(=O)Nc1cc(Cl)c(Cl)cn1
### Response 4.52

### Prompt Requested field: cytotoxicity at 10 µM. Item: Cc1cc(C)n(C2CN(c3nc(N)nc4c3CCCC4)C2)n1
### Response -44.4

### Prompt Requested field: cytotoxicity at 10 µM. Item: Cc1nn(-c2ccccc2)c(C)c1CNC(=O)NC1CC1
### Response 7.59

### Prompt Requested field: cytotoxicity at 10 µM. Item: CN(CCO)c1ncc(-c2ccc(NC(=O)[C@@H]3CCCCN3)cc2)cn1
### Response 0.609

### Prompt Requested field: cytotoxicity at 10 µM. Item: c1cncc(N2CCO[C@H]3CN(CC4CCOC4)C[C@H]32)c1 (some centres undefined)
### Response -95.7

### Prompt Requested field: cytotoxicity at 10 µM. Item: FC(F)CNc1cnc(C2CCCN2)cn1 (centres undefined)
### Response 0.865

### Prompt Requested field: cytotoxicity at 10 µM. Item: Cc1ccc(NS(=O)(=O)c2cc3c(c(C(=O)O)c2)OCCO3)cc1C
### Response -15.3
